ASSAY_METHOD_TEXT: Ultraviolet induced erythema in guinea pigs
Format: in vivo, Albino guinea pigs
Parameters: key: sum of 3 sites, each 0 = none, 0.5 = faint, 1.0 = distinct; max 3.0
ASSAY_CONTEXT: oral 62.5 mg./kg., 4 hours; maximum 3.0
PROPERTY_MEASURED: Erythema Score (avg.)
Give only the figure.

// worked examples, Erythema Score (avg.) included
compound="C/C(O)=C(\\C#N)C(=O)c1ccccc1 [Cis-2-benzoyl-3-hydroxy-crotononitrile, Cis-2-benzoyl-3-hydroxycrotononitrile]" property_measured="Erythema Score (avg.)" recorded_value=2.4
compound=CC(=O)Oc1ccccc1C(=O)O property_measured="Erythema Score (avg.)" recorded_value=2.0
compound=CCCCC1C(=O)N(c2ccccc2)N(c2ccccc2)C1=O property_measured="Erythema Score (avg.)" recorded_value=0.9

Read the next record carefully.
## Input Given the compound `COc1ccc2c(c1)c(CC(=O)O)c(C)n2C(=O)c1ccc(Cl)cc1` , what is its reported Erythema Score (avg.)?
## Output 1.3

Origin of values: patent US4170656A
